Tested on: Pseudomonas aeruginosa
Settings: Concentration 32 ug.mL-1; ASSAY_TEST Inhibition of Bacterial Growth; detection method Absorption (OD600); MEDIA CAMHB; plate type 384well; NBS; CORNING #3640; time 18 hr
Description: Antibacterial activity against Pseudomonas aeruginosa ATCC 27853 (CO-ADD:GN_042); MIC in CAMBH media using NBS plates, by OD(600)
Among all 23,000 compounds or so, about 30 (0.1%) showed an effect of 50% or more. The entries come from a sample that favours strong results as a whole. Potency and affinity values are given separately.
Exercise: for every item that follows, state its recorded Inhibition.
Answer shape: numeric part, then the unit.

# compound, measurementTarget, recordedMeasurement
records = [
    ("COc1ccc2cc(C3C(C(C)=O)=C(C)Oc4nc5c(c(N)c43)CCC5)c(Cl)nc2c1 (configuration not stated)", "Pseudomonas aeruginosa", "8.84%"),
    ("N#Cc1cc(C#N)c(N2CCCC2)nc1N1CCCC1", "Pseudomonas aeruginosa", "50.45%"),
    ("CCOC(=O)/C(C#N)=C\\c1ccc([N+](=O)[O-])cc1", "Pseudomonas aeruginosa", "5.37%"),
    ("Cl.N#Cc1cc(C#N)c(N2CCCC2)nc1Cl", "Pseudomonas aeruginosa", "9.12%"),
    ("CNC(=O)NC1(C(=O)O)CC1c1ccccc1 (configuration not stated)", "Pseudomonas aeruginosa", "50.33%"),
]

# per-item lookup of Inhibition; items listed below
1. COC(=O)C1(NC(=O)c2ccccc2)CC1c1ccccc1 (configuration not stated)
2. CN(N=O)C(=O)NC1(C(=O)O)CC1c1ccccc1 (configuration not stated)

23.63%
47.22%
